Measured Target: ARK5 (Homo sapiens, UniProt O60285)
Readout Kind: pKd
Units for pKd: none; it is -log10 of a concentration expressed in mol/L.

Task item: // query pKd value for entry C[C@H]1CNC(=O)c2cnn3ccc(nc23)N[C@H](C)c2cc(F)ccc2O1
Reply: 8.43

---

Measured Target: FGR (Homo sapiens, UniProt P09769)
Readout Kind: IC50 (nM)
Field: numeric (nM). Do not append units.

Task item: // query IC50 value for entry C[C@H]1CNC(=O)c2cnn3ccc(nc23)N[C@H](C)c2cc(F)ccc2O1 [Compound 1]
Reply: 3.05

---

Measured Target: LTK (Homo sapiens, UniProt P29376)
Readout Kind: pIC50
Units for pIC50: none; it is -log10 of a concentration expressed in mol/L.

Task item: Give LTK (Homo sapiens, UniProt P29376) pIC50 for C[C@H]1CNC(=O)c2cnn3ccc(nc23)N[C@H](C)c2cc(F)ccc2O1
Reply: 7.66

---

Measured Target: EPHA1 (Homo sapiens, UniProt P21709)
Readout Kind: IC50 (nM)
Field: numeric (nM). Do not append units.

Task item: // query IC50 value for entry C[C@H]1CNC(=O)c2cnn3ccc(nc23)N[C@H](C)c2cc(F)ccc2O1
Reply: 25

---

Measured Target: LCK (Homo sapiens, UniProt P06239)
Sequence (P06239 whole entry): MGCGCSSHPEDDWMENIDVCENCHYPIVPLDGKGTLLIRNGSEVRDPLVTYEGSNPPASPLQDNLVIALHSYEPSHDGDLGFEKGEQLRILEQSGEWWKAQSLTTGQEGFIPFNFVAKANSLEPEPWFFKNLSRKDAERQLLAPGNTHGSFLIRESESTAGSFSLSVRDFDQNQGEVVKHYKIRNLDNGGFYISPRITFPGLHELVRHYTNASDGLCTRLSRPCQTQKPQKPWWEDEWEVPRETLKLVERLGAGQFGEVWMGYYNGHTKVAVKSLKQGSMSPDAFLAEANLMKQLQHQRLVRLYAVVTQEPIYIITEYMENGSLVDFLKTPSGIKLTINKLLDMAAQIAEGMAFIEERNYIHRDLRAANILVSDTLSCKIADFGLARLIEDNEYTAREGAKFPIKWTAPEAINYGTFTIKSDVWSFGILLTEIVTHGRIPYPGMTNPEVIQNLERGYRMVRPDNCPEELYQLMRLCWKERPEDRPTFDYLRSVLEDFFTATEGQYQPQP
Readout Kind: IC50 (nM)
Field: numeric (nM). Do not append units.

Task item: Give LCK (Homo sapiens, UniProt P06239) IC50 for C[C@H]1CNC(=O)c2cnn3ccc(nc23)N[C@H](C)c2cc(F)ccc2O1
Reply: 18.6

---

Test system: Ba/F3 TPR-ALK wild type cell line
Protocol: Cell proliferation assay at Advanced Cellular Dynamics (CellTiter-Glo)
Assay type: cell-based
Experimental Parameters: Mus musculus, BaF3, 48 hours
Readout Kind: IC50 (nM)
Field: numeric (nM). Do not append units.

Task item: // query IC50 value for entry C[C@H]1CNC(=O)c2cnn3ccc(nc23)N[C@H](C)c2cc(F)ccc2O1 [Compound 1]
Reply: 12

---

Measured Target: EPHA8 (Homo sapiens, UniProt P29322)
Construct: purchased Reaction Biology Corporation (contract assay)
Sequence (P29322 28-1005): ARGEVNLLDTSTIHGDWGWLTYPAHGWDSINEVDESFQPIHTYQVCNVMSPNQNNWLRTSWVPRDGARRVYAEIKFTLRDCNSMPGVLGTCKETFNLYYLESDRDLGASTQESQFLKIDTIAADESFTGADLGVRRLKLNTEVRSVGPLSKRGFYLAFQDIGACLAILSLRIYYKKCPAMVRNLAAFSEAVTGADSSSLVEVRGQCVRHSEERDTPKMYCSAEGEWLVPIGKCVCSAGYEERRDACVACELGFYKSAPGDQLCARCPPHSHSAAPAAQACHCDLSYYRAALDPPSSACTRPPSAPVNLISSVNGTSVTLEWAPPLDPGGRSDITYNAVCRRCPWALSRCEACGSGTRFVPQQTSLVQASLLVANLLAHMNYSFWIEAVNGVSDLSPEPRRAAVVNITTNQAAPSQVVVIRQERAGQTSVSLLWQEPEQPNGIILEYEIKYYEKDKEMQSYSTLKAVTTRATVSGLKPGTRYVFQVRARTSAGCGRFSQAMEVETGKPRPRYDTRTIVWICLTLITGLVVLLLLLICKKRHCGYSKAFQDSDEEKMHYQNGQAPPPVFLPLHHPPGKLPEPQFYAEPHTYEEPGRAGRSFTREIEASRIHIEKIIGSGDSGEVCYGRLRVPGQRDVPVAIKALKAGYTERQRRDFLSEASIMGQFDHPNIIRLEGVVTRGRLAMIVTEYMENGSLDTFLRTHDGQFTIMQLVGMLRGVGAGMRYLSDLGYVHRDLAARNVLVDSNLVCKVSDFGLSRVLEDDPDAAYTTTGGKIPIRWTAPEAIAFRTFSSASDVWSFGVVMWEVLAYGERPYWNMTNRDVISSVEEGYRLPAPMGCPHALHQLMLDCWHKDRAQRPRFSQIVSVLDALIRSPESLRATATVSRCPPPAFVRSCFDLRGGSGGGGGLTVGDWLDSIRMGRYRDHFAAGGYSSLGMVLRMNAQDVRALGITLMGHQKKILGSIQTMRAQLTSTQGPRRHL
Protocol: Biochemical kinase assay (Reaction Biology)
Experimental Parameters: 10 μM ATP
Readout Kind: IC50 (µM)
Field: numeric (µM). Do not append units.

Task item: // query IC50 value for entry C[C@H]1CNC(=O)c2cnn3ccc(nc23)N[C@H](C)c2cc(F)ccc2O1
Reply: 0.0502

---

Measured Target: UniProtKB P08069
Sequence (P08069 31-1367): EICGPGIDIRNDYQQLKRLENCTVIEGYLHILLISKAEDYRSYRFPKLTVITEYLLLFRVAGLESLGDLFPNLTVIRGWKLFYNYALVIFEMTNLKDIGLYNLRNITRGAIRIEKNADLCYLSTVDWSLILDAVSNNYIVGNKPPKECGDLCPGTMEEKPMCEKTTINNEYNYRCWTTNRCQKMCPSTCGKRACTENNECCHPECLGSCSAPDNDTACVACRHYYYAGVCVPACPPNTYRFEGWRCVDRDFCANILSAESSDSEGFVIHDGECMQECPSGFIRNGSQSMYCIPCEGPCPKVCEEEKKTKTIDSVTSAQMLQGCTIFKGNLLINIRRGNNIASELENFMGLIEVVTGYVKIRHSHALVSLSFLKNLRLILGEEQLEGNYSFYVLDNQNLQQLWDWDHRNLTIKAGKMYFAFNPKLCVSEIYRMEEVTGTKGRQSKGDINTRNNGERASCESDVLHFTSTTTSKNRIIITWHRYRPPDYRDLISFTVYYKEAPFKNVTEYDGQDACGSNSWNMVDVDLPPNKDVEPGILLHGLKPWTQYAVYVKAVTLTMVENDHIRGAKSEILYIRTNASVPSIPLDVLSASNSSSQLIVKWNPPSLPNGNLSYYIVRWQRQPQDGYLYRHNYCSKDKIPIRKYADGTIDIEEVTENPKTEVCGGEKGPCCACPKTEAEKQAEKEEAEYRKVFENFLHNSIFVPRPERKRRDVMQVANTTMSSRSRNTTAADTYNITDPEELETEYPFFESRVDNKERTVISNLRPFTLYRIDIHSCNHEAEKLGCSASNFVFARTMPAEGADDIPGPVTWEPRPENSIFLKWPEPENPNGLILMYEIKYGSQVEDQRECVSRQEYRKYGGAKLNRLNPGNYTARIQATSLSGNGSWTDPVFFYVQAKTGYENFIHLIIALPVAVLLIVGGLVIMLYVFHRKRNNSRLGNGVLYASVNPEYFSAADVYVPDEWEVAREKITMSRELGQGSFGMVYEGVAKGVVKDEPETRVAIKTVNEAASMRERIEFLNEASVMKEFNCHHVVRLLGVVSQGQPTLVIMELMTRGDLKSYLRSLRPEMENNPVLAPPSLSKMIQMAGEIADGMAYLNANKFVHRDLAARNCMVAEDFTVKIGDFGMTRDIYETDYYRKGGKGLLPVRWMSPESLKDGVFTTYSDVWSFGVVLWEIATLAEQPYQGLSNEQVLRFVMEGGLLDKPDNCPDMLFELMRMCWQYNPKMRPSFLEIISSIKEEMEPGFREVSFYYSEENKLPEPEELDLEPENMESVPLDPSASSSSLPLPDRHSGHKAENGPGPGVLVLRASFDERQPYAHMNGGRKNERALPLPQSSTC
Readout Kind: pIC50
Units for pIC50: none; it is -log10 of a concentration expressed in mol/L.

Task item: Give UniProtKB P08069 pIC50 for C[C@H]1CNC(=O)c2cnn3ccc(nc23)N[C@H](C)c2cc(F)ccc2O1 [Compound 1]
Reply: 6.95

---

Measured Target: PYK2 (Homo sapiens, UniProt Q14289)
Readout Kind: IC50 (nM)
Field: numeric (nM). Do not append units.

Task item: Give PYK2 (Homo sapiens, UniProt Q14289) IC50 for C[C@H]1CNC(=O)c2cnn3ccc(nc23)N[C@H](C)c2cc(F)ccc2O1 [Compound 1]
Reply: 39.9

---

Measured Target: IRR (Homo sapiens, UniProt P14616)
Construct: purchased Reaction Biology Corporation (contract assay)
Sequence (P14616 27-1297): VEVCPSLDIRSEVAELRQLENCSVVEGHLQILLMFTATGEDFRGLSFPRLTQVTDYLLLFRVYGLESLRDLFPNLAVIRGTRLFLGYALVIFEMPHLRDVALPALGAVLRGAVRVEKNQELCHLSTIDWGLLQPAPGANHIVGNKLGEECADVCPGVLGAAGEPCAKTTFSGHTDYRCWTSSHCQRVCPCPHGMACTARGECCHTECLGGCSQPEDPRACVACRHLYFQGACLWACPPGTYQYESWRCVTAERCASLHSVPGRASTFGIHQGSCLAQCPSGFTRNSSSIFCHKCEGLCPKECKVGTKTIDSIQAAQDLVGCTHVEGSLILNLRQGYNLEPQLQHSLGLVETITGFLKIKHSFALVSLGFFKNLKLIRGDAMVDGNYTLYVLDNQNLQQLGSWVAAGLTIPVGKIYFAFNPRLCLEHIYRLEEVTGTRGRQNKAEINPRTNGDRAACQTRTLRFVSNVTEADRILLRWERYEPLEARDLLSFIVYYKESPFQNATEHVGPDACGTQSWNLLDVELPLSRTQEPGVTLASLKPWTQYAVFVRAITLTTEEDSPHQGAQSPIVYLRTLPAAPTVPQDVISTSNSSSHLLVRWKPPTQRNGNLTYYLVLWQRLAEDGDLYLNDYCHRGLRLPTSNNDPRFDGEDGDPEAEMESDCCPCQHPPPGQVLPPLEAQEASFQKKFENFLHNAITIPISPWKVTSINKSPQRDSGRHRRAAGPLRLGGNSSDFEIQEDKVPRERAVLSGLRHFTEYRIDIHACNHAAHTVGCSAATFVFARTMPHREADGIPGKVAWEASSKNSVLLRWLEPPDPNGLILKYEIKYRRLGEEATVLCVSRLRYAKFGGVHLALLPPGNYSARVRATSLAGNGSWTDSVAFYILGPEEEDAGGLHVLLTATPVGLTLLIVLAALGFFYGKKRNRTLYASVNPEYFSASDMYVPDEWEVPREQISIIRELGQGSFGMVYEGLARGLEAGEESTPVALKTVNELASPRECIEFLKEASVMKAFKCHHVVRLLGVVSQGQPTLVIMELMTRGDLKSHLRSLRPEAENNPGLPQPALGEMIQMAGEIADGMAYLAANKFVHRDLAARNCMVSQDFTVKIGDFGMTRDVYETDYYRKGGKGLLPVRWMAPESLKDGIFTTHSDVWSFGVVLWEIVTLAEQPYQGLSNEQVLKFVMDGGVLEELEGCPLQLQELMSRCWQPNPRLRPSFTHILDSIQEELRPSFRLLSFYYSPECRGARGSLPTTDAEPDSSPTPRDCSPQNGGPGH
Protocol: Biochemical kinase assay (Reaction Biology)
Experimental Parameters: 10 μM ATP
Readout Kind: pIC50
Units for pIC50: none; it is -log10 of a concentration expressed in mol/L.

Task item: // query pIC50 value for entry C[C@H]1CNC(=O)c2cnn3ccc(nc23)N[C@H](C)c2cc(F)ccc2O1 [Compound 1]
Reply: 7.74

---

Measured Target: DDR2 (Homo sapiens)
Construct: purchased Reaction Biology Corporation (contract assay)
Sequence (Q16832 22-855): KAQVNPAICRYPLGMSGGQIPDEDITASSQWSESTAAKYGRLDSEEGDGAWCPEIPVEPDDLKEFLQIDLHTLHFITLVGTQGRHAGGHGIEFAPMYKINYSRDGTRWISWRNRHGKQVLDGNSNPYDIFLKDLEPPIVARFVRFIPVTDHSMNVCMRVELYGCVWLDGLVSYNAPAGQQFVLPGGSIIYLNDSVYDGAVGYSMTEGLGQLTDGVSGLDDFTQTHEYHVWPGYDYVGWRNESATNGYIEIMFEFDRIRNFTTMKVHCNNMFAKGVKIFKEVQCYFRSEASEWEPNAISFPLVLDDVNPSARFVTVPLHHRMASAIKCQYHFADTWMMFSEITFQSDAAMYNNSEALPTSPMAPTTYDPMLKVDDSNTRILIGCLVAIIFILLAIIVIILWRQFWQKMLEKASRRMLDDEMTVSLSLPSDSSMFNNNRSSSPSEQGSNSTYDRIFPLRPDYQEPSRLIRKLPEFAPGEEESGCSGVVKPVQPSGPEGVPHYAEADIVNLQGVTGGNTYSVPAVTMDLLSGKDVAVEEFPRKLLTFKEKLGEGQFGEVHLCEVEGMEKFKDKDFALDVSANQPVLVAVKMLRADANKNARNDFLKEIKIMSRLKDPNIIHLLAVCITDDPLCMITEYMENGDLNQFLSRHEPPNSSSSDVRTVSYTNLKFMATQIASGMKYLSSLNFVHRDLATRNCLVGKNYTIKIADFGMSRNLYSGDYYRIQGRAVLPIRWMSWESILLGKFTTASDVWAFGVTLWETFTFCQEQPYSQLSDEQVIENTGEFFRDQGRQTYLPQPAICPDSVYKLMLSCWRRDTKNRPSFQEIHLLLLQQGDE
Protocol: Biochemical kinase assay (Reaction Biology)
Experimental Parameters: 10 μM ATP
Readout Kind: IC50 (nM)
Field: numeric (nM). Do not append units.

Task item: Give DDR2 (Homo sapiens) IC50 for C[C@H]1CNC(=O)c2cnn3ccc(nc23)N[C@H](C)c2cc(F)ccc2O1
Reply: 23

Data origin: patent US11452725B2
